- target.of.assay: AHDC1; also: reference of the scale not given here
- protocol.text: pooled miR-30 sensor sort-seq; sequence = guide strand
- assay.setup: shRNA
Reported values of sensor-assay potency score (higher = more potent) for individual entries

Prompt: Form field - read-out: sensor-assay potency score (higher = more potent); system: AHDC1; submitted item: TCTGGTTCCAGTTGTAGCCGGG; also: reference of the scale not given here
Response: 0.572

Prompt: Form field - read-out: sensor-assay potency score (higher = more potent); system: AHDC1; submitted item: TTTGCGGGTAGAGACCACTGGG; also: reference of the scale not given here
Response: -0.394

Prompt: Form field - read-out: sensor-assay potency score (higher = more potent); system: AHDC1; submitted item: TAGCTTGCTGCTCGTCCTGGTG; also: reference of the scale not given here
Response: -0.838

Prompt: Form field - read-out: sensor-assay potency score (higher = more potent); system: AHDC1; submitted item: TTGTATGTGGTCTTGTTCCGCC; also: reference of the scale not given here
Response: -0.176

Prompt: Form field - read-out: sensor-assay potency score (higher = more potent); system: AHDC1; submitted item: AACTCTGGGACTGAGACCGGGC; also: reference of the scale not given here
Response: -0.558

Prompt: Form field - read-out: sensor-assay potency score (higher = more potent); system: AHDC1; submitted item: ATGCTTGCCATCAAGCTCGGGA; also: reference of the scale not given here
Response: -0.78

Prompt: Form field - read-out: sensor-assay potency score (higher = more potent); system: AHDC1; submitted item: TTTGTATGTGGTCTTGTTCCGC; also: reference of the scale not given here
Response: 0.223

Origin of measurements: the OligoGym collection
